# system-tested: T1, ADF peptide complexed with HLA-A*02:01 on T2 cells (human)
# T1 construct: whole, on cells
# experimental-details: flow cytometry, peptide-loaded T2 cells;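 note: binding of single-chain Fv antibody constructs, raised in XenoMouse, to peptide-pulsed T2 cells measured by flow cytometry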
assay-endpoint: Signal/background
Give a plain numeric answer without units written out.

Some solved entries appear below for comparison.
- 18182-B5 (scFv, scFv in bacterial lysate, detected with anti-Flag M2) scFv: EVQLLESGGGLVQPGGSLRLSCAASGFTFSSHAMSWVRQAPGKGLEWVSAISGSGGGTYYADSVKGRFTISRDNSKNTLYLQMNSLRAEDTAVYYCATGKGVHLGFDYWGQGTLVTVSSGGGGSGGGGSGGGGSELVLTQPPSVSVAPGQTARITCGGNNIGSKSVHWYQQKPGQAPVLVVYDDNDRPSGIPERFSGSNFGNTATLIISRVEAGDEADYYCQVWDSSSDHVVFGGGTKLTVL: 0.9
- 18182-E10 (scFv, scFv in bacterial lysate, detected with anti-Flag M2) scFv: EVQLLESGGGLVQPGGSLRLSCAASGFTFSSHAMSWVRQAPGQGLEWVSSISGSGGGTYYAASVKGRFTISRDNSKNTLYLQMNSLRAEDTAVYYCATGKGVHLNFDYWGQGTLVTVSSGGGGSGGGGSGGGGSELALTQPASASVAPGQTARITCGGNNIGSKSVHWHQQKPGQAPVLVVYDDNDRPSGIPERFSGSNSGNTATLTISRVEAGDEADFYCQVWDSSSDHVVFGGGTKLTVL: 0.9

Alright, here's another binder for you.
Q. // query Signal/background value for entry 18182-E6 (scFv, scFv in bacterial lysate, detected with anti-Flag M2) scFv: EVQLLESGGGLVQPGGSLRLSCAASGFTFSSYAMSWVRQAPGKGLEWVSAISGSGGGTYYADSVKGRFTISRDNSKNTLYLQMNSLRAEDTAVYYCATGKGVHLNFDYWGQGTLVTVSSGGGGSGGGGSGGGGSELVLTQPSSVSVAPGQTARITCGGNNIGSKSVHWYQQKPGQAPVLVVYDDNDRPSGIPERFSGSNFGNTATLIISRVAAGDEADYYCQVWDSSSDHVVFGGGTKLTVL
A. 1
